# Study system: Ube1 (Homo sapiens, UniProt P22314)
# Construct: 6His-UBE1-(hu,FL) (E1); made in house
# Assay summary: E1 assay, HTRF
# Assay type: biochemical
# Condition label: 1 μM E1, 2 μM Ub, Anti-6His-K, 30 minutes pre-incubation
Quantity: pIC50
In plain terms, pIC50 is the concentration in mol/L turned into minus its base-10 logarithm.

# pIC50 (compound: CCOC(=O)c1ccc(N2NC(=O)/C(=C/c3ccc([N+](=O)[O-])o3)C2=O)cc1 [PYR-41] ) is 4.37

----------
# Study system: UbCH3 (Homo sapiens)
Quantity: IC50 (µM)
// note: answer is a bare numeric in µM

# CCOC(=O)c1ccc(N2NC(=O)/C(=C/c3ccc([N+](=O)[O-])o3)C2=O)cc1 with UbCH3 (Homo sapiens): IC50 is 3.2

----------
# Study system: Ube1/UbCH3 (Homo sapiens)
# Construct: 6His-UBE1-(hu,FL) (E1); made in house
# Assay summary: E1+E2 (Ube1+UbCH3) assay, HTRF
# Assay type: biochemical
# Condition label: 100 nM E1, 1 μM E2, 400 nM Ub, Anti-6His-K detection
Quantity: IC50 (µM)
// note: answer is a bare numeric in µM

# IC50 (molecule: CCOC(=O)c1ccc(N2NC(=O)/C(=C/c3ccc([N+](=O)[O-])o3)C2=O)cc1 ) is 16

----------
# Study system: Ube1 (Homo sapiens)
# Construct: 6His-UBE1-(hu,FL) (E1); made in house
# Assay summary: Ube1 (E1) assay, ECL
# Format: biochemical
# Condition label: 50 nM E1, 2 μM Ub, 500 μM ATP, 30 minute pre-incubation with cpd, 30 minute reaction time
Quantity: IC50 (nM)
// note: answer is a bare numeric in nM

# IC50 (compound: CCOC(=O)c1ccc(N2NC(=O)/C(=C/c3ccc([N+](=O)[O-])o3)C2=O)cc1 [PYR-41] ) is 1300

----------
# Study system: Ube1 (Homo sapiens)
# Construct: 6His-UBE1-(hu,FL) (E1); made in house
# Sequence (P22314 1-1058): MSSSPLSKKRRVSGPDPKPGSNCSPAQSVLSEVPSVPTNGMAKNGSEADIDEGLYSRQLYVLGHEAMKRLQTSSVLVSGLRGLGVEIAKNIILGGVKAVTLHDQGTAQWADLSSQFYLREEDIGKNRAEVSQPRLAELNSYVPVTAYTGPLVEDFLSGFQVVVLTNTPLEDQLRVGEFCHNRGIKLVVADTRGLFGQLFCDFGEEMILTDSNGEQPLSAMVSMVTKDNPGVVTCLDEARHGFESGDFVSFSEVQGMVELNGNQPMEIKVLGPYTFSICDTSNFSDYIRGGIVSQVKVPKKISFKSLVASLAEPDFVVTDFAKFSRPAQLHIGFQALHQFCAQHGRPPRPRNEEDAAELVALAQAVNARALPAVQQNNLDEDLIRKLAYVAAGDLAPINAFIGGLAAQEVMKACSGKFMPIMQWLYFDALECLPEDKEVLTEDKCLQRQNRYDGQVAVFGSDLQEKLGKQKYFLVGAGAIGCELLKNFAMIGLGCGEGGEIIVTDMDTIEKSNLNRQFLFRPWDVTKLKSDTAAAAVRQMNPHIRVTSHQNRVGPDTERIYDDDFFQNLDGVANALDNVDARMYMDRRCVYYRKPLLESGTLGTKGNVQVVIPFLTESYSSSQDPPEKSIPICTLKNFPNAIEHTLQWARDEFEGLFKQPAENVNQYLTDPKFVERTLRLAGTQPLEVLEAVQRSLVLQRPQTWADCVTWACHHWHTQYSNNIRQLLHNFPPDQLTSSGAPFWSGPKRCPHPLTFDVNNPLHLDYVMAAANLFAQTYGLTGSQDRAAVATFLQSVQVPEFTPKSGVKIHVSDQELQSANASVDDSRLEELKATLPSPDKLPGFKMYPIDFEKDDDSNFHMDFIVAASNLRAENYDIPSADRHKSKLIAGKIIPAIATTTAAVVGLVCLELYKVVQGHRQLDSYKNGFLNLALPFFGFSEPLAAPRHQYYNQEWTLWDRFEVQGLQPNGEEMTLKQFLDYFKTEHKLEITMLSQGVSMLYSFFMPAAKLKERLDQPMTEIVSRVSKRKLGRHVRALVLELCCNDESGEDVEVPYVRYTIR
# Assay summary: Ube1 (E1) assay, ECL
# Type: biochemical
# Condition label: anti-His capture, 50 nM E1, 2 μM Ub, 100 μM ATP, 60 minute incubation
Quantity: pIC50
In plain terms, pIC50 is the concentration in mol/L turned into minus its base-10 logarithm.

# CCOC(=O)c1ccc(N2NC(=O)/C(=C/c3ccc([N+](=O)[O-])o3)C2=O)cc1 [PYR-41] with Ube1 (Homo sapiens): pIC50 is 5.11
